System: human red blood cells (RBCs)
Test: Red blood cell lysis assay
Details: hemolysis
endpoint: RBCs HC50

INSERT INTO assay_data (compound, result) VALUES
  ('Oc1ccc(Oc2ccccc2)cc1', '912 µM'),
  ('Cc1ccc(-c2cc(C(=O)O)c(C)o2)cc1', '>1,000 μM'),
  ('O=C(O)c1ccc(-c2ccsc2)cc1', '>1,000 μM'),
  ('Cc1oc(-c2ccc(Cl)cc2)cc1C(=O)N(C)C', '433 µM'),
  ('NC(=S)COc1cccc(Cl)c1 [Fragment F13, 2-(3-Chlorophenoxy) ethanethioamide]', '904 µM'),
  ('Cc1ncc(C(N)=S)[nH]1 [Fragment F3, 2-Methyl-1H-imidazole-4-carbothioamide]', '>1,000 μM'),
  ('O=c1cc(C(F)(F)F)c2ccc(O)cc2o1', '>1,000 μM'),
  ('O=C(O)c1ccc(-c2ccccc2)s1', '>1,000 μM');
